Biological target: T1, GFP-9S library array, motif 4 ND N98F;D124N (synthetic construct, N98F;D124N)
T1 chain: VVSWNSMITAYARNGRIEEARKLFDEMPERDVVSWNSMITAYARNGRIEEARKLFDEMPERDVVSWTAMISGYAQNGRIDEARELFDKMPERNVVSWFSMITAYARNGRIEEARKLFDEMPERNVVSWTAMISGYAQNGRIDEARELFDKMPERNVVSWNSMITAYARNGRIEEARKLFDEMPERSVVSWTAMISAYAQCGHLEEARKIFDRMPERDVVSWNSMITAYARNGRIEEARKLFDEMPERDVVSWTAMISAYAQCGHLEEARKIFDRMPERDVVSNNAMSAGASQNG
Assay: high-throughput RNA pulldown from lysate on Ni-NTA beads; HRP: 50 mM Tris pH 8, 150 mM NaCl, 1 mM beta-mercaptoethanol, 50 ug/ml BSA, 3 ug/ml yeast RNA, 0.5% heparin; ITC and FP: Tris pH 8, 200 mM KCl, 5% glycerol; MST: 50 mM Tris pH 8, 200 mM NaCl, 1 mM DTT, BSA, heparin, 0.05% Tween 20
Conditions: tags: N-terminal His-eGFP; label: 5' Cy5
Give measured pKd for each item. Keep answers brief.
Worth noting: pKd values are minus log10 of concentrations stated in mol/L.

**Q:** Field request: pKd | item: AUUAGACGUGA (ssRNA) [Cy5-rpoA-G]
**A:** 7.00

**Q:** Field request: pKd | item: AUUACACGUGA (ssRNA) [Cy5-rpoA]
**A:** 7.09
